experimentalSystem: T1, human CD4 on cells (SKW3 cells; human PBMCs) (human, UniProt P01730 26-458)
T1 construct: whole, on cells; The SKW3 CD4 knockout cells served as the negative cell line; also called hCD4
assayOverview: FACS confirmation, supernatant on human PBMCs, anti-mFc 647, CD4+ gate
endpointLabel: PBMCs CD4+ gate RL1 Binding
Give bare numbers.

Q) Fill in: PBMCs CD4+ gate RL1 Binding of 75110_08H11A (antibody, V domains shown, Tested as non-clonal hybridoma supernatant from AlivaMab Mouse Kappa mice, detected with anti-mouse Fc and anti-human Kappa) VH: EVQLVESGGGLVQPGGSLRLSCAASGFTFSSYDMHWVRQATGKGLEWVSTIGTAGDTYYPGSVKGRFTISRENAKNSLYLQMNSLRAGDTAVYYCARGGYSYYGMDVWGQGTTVTVSS VL: EIVLTQSPGTLSLSPGERATLSCGASQSVSSTYLAWYQQKPGQAPRLLIYGASSRATGIPDRFSGSGSGTDFTLTISRLEPEDFAVYYCQQFGSSPFTFGPGTKVDIK is ___
A) 246000

From here, focus on the item given below.
Q) Fill in: PBMCs CD4+ gate RL1 Binding of 75110_08H06A (antibody, V domains shown, Tested as non-clonal hybridoma supernatant from AlivaMab Mouse Kappa mice, detected with anti-mouse Fc and anti-human Kappa) VH: EVQLVESGGGLVQPGGSLRLSCAASGFTFSNYDMHWVRQATGKGLEWVSTIGTAGDTYYPGSVKGRFTISRENAKNSLYLQMNSLRAGDTAVYYCARGGYDYYGMDVWGQGTTVTVSS VL: EIVLTQSPGTLSLSPGERATLSCRASQSITSIYLAWYRQKPGQAPRLLIYGASSRATGIPDRFSGSGSGTDFTLTISRLEPEDFAVYYCQQYGSSPFTFGPGTKVDIK is ___
A) 225000
